Taken from patent US20250042994A1.

- TARGET DESC: T1, Human CD19-his protein (human, UniProt P15391 20-291)
- T1 construct: bought protein; also called human CD19 protein; recombinant human CD19-His; not shown: His tag
- T1 sequence (looked up): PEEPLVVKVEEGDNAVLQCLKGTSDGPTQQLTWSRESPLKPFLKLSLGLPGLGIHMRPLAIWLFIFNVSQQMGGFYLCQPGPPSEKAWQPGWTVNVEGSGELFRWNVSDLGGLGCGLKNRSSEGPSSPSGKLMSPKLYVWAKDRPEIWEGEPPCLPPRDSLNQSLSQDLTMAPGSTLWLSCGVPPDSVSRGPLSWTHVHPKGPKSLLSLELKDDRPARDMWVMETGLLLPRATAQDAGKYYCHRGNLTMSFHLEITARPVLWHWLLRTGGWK
- EXPERIMENTAL DETAILS: ELISA, antibody at 0.01 nM
REPORTED PROPERTY: OD450
Enter a number only.

Look up and state reported OD450 for F5.11.2 (antibody, human IgG1, V domains shown, human-murine chimeric antibody, human IgG1) VH: EVQLVESGGDLVKPGGSLKLSCAASGFTFSSYGMSWVRQTPDKRLEWVATISHGGSYTHYPDSVKGRFTISRDNAKNTLYLQMNSLKSEDTAMYYCVRLPITTVEAPYFFDYWGQGTTLTVSS VL: DIQMTQTTSSLSASLGDRVTISCRASQDIRNYLNWYQQKPDGTVKLLIYYTSILHSGVPSRFSGSGSGTDYSLTINNLEQEDVATYFCQQGNTLYTFGGGTEVELR
0.14

Using known records, supply OD450 for F4.125.12 (antibody, human IgG1, V domains shown, human-murine chimeric antibody, human IgG1) VH: EVKLVESGGGLVQPGGSLKLSCAASGFTFSTYTMSWVRQTPEKRLEWVAFISSGGGHINYPDTVKGRFTISRDNAKNTLYLQMSSLKSEDTAMYYCARHSYWFFDVWGAGTTVTVSS VL: DVQITQSPSYLAASPGETITINCRASKNIDTYLAWYQEKPGKTNKLLIYSGSTLQSGIPSRFRGGGSGTDFTLTICSLEPEDFAMYYCQQHNEYPLTFGAGTKLELK
0.23

Respond only with OD450 recorded for F6.2.9 (antibody, human IgG1, V domains shown, human-murine chimeric antibody, human IgG1) VH: QVQLQQSGAELVKPGASVKISCKASGYAFSSYWMNWVKQRPGKGLEWIGQIYPGDGDTNYNGKFKGKATLTADKSSSTGYMQLSSLTSEDSAVYFCARSRITSVVDWYFDVWGTGTTVTVSS VL: QIVLSQSPAILSASPGEKVTMTCRASSSVSYMHWYQQKPGSSPKPWIYATSNLASGVPARFSGSGSGTSYSLTISRVEAEDAATYYCQQWSSNPPTFGAGTKLELK
0.06

Please report OD450 for the following binder: F3.113.16 (antibody, human IgG1, V domains shown, human-murine chimeric antibody, human IgG1) VH: QVQLQQPGAELVKPGASVKLSCKASGYTFTNYWMQWVKQRPGQGLEWIGEIDPSDSYINYNQKFKGKATLTADTSSSTAYMQLSSLTYEDSAVYYCARPVTVPWYFDVWGTGTTVTVSS VL: EIVLTQSPTTMAASPGEKITITCSATSSISSNYLHWYQQKPGFSPKLLIYRTSNLASGVPARFSGSGSGTSYSLTIGTMEAEDVATYYCQQGSAIPRIFTFGSGTKLEIK
0.06

Give reported OD450 value for F4.58.6 (antibody, human IgG1, V domains shown, human-murine chimeric antibody, human IgG1) VH: QVQLQQPGAELVKPGASVKLSCKASGYTFTSYWMHWVKQRPGQGLEWIGEIDPSDSYSNYNQKFKGKATLTVDKSSSTAYMQLSSLTSEDSAVYYCARSNYGSSYGYFDVWGAGTTVTVSS VL: QIVLTQSPAIMSASPGEKVTMTCSVSSSLSYMHWYQQKPGTSPKRWIYDTSKLASGVPARFSGSGSGTSYSLTISSMEAEDAATYYCHQRSSYPTFGGGTKLEIK
0.09
